- target-desc: T1, rat cMET (ELISA antigen) (rat, UniProt P97523 25-935, limits assumed)
- T1 construct: also called rMET
- T1 sequence (P97523 25-935 limits assumed): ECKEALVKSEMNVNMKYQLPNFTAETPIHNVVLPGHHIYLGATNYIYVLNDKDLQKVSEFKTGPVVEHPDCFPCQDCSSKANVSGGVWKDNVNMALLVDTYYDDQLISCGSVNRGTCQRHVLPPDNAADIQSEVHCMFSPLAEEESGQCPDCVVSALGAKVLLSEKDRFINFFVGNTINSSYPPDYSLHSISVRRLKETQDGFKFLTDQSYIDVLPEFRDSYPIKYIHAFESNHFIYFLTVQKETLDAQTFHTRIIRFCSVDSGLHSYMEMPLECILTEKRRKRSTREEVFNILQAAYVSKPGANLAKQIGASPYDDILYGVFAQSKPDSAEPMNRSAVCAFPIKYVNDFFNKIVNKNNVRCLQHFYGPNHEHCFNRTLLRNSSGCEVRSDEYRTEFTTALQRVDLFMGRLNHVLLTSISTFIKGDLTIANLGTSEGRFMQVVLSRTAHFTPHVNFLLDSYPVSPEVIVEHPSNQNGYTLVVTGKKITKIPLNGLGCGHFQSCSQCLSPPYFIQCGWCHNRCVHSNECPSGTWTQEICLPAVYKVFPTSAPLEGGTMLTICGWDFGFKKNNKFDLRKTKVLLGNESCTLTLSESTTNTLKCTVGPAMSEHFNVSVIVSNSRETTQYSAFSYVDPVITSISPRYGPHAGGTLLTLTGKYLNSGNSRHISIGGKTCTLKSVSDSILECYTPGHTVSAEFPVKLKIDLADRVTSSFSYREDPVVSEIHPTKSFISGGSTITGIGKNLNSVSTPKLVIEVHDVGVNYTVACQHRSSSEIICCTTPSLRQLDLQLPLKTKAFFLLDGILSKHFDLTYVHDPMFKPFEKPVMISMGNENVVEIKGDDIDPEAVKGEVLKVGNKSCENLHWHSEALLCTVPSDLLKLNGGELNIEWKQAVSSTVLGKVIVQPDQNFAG
- assay-name: ELISA on rat cMET, relative to parental P3D12
measured-parameter: ELISA rMET vs parental (fold vs parental)
Quick reminder: number only, in fold vs parental, skip the unit.

The cases that follow already have their ELISA rMET vs parental on record.
binder	ELISA rMET vs parental / fold vs parental
G2aka (humanized P3D12, VH-abb/sdr + VL-abb/sdr) (antibody, V domains shown, Humanized and isotype switched version of P3D12) VH: QVQLVQSGAEVKKPGASVKVSCKASGYTFTSYWMHWVKQAPGQGLDWMGYIKPSTDNTEYAQKFQGRVTLTADKSTSTAYMELSSLRSEDTAVYYCARSYGNYPLMDYWGQGTTVTVSS VL: QIVLTQSPATLSLSPGERATLSCRASQSVTSNYLYWYQQKPGSSPRLLIYSTSNLASGVPARFSGSGSGTDYTLTISRLEPEDFASYFCHQWSSYPPTFGSGTKLEIKR	1.1
G2cka (humanized P3D12, VH-cdr + VL-abb/sdr) (antibody, V domains shown, Humanized and isotype switched version of P3D12) VH: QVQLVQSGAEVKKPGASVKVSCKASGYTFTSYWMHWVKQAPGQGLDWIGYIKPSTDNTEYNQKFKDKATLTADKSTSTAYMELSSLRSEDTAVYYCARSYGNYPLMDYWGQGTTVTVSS VL: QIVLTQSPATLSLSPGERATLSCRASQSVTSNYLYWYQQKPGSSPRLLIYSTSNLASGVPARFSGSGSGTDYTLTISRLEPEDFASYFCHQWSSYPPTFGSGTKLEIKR	2.7
G2vkv (humanized P3D12, VH-ven + VL-ven) (antibody, V domains shown, Humanized and isotype switched version of P3D12) VH: QVQLVQSGAEVAKPGASVKMSCKASGYTFTSYWMHWVKQAPGQGLDWIGYIKPSTDNTEYNQKFKDKATLTADKSTSTAYMQLSSLRSEDTAVYYCARSYGNYPLMDYWGQGTTVTVSS VL: QIVLTQSPATMSASPGERVTLSCSASSSVTSNYLYWYQQKPGSSPRLWIYSTSNLASGVPARFSGSGSGTSYTLTISRMEPEDAASYFCHQWSSYPPTFGSGTKLEIKR	1.6
G2akc (humanized P3D12, VH-abb/sdr + VL-cdr) (antibody, V domains shown, Humanized and isotype switched version of P3D12) VH: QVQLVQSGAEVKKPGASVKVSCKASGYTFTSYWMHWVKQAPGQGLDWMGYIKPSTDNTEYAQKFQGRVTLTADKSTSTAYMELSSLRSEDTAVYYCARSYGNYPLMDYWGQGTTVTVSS VL: QIVLTQSPATLSLSPGERATLSCSASSSVTSNYLYWYQQKPGSSPRLLIYSTSNLASGVPARFSGSGSGTSYTLTISRLEPEDFASYFCHQWSSYPPTFGSGTKLEIKR	0.7
G2ckc (humanized P3D12, VH-cdr + VL-cdr) (antibody, V domains shown, Humanized and isotype switched version of P3D12) VH: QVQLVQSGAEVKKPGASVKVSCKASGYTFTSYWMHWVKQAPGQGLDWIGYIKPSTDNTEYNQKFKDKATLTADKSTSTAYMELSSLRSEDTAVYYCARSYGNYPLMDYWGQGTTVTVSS VL: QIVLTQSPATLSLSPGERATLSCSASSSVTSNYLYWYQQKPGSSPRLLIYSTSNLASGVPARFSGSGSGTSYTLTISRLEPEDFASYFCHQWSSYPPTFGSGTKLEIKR	2

Given G2vkc (humanized P3D12, VH-ven + VL-cdr) (antibody, V domains shown, Humanized and isotype switched version of P3D12) VH: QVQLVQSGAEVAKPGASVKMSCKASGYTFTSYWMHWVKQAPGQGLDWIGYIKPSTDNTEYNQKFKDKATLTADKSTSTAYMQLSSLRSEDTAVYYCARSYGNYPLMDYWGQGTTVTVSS VL: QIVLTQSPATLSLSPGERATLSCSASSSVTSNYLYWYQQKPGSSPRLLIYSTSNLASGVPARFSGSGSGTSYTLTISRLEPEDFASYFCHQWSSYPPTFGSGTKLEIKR , respond with its ELISA rMET vs parental. 1.9

For the binder G2akf (humanized P3D12, VH-abb/sdr + VL-fra) (antibody, V domains shown, Humanized and isotype switched version of P3D12) VH: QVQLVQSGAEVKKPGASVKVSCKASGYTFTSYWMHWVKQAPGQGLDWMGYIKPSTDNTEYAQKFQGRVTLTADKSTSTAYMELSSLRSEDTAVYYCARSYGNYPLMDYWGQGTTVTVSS VL: QIVLTQSPAILSLSPGERATLSCSASSSVTSNYLYWYQQKPGSSPKLLIYSTSNLASGVPARFSGSGSGTSYTLTISSLEAEDAASYFCHQWSSYPPTFGSGTKLEIKR , report ELISA rMET vs parental. 0.5

Specify measured ELISA rMET vs parental for G2ckv (humanized P3D12, VH-cdr + VL-ven) (antibody, V domains shown, Humanized and isotype switched version of P3D12) VH: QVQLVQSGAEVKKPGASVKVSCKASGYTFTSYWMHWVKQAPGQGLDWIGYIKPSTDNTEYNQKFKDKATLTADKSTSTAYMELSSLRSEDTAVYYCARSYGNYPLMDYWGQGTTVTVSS VL: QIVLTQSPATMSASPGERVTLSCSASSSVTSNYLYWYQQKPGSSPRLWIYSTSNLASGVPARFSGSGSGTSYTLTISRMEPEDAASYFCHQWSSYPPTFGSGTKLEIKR . 1

For the binder G2fkv (humanized P3D12, VH-fra + VL-ven) (antibody, V domains shown, Humanized and isotype switched version of P3D12) VH: QVQLQQSGAEVKKPGASVKVSCKASGYTFTSYWMHWVKQRPGQGLDWIGYIKPSTDNTEYNQKFKDRVTLTADKSTSTAYMQLSNLISEDTAVYYCARSYGNYPLMDYWGQGTSVTVSS VL: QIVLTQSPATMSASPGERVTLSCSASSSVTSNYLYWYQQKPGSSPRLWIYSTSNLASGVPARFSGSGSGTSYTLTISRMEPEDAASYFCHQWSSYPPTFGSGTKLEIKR , report ELISA rMET vs parental. 1.2

Please list ELISA rMET vs parental recorded for the binder G2akv (humanized P3D12, VH-abb/sdr + VL-ven) (antibody, V domains shown, Humanized and isotype switched version of P3D12) VH: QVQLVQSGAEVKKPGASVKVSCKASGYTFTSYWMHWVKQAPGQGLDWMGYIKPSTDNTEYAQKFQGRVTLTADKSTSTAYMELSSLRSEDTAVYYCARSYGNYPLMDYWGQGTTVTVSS VL: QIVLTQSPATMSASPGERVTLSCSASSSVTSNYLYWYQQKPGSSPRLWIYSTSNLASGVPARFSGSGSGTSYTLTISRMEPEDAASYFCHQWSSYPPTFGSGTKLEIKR 1.3
